Data provenance is patent US11660311B2.

- test-system: STING WT: His-TVMV-S-hSTING(155-341)-H232R (Homo sapiens, UniProt Q86WV6, H232R)
- Construct: STING WT: His-TVMV-S-hSTING(155-341)-H232R
- Sequence (Q86WV6 with tags, fused parts or gaps H232R): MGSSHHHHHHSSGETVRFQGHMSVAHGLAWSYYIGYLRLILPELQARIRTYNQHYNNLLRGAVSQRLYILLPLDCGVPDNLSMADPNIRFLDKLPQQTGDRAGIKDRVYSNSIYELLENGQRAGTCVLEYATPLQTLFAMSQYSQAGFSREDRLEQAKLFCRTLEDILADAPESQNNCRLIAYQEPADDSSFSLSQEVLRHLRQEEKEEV
- assay-overview: STING HTRF Binding Assay, STING WT
- experimental-setup: 20 nM His-tagged STING cytoplasmic domain, 200 nM fluorescein-labeled cGAMP analog probe, one hour; read-out: HTRF Binding Assays IC50 (μM) STING WT
readout-name: IC50 (µM)
API: value field is a number in µM; no unit string.

Consider the compound Nc1nc2c(ncn2[C@@H]2O[C@@H]3COP(=O)(O)O[C@H]4[C@@H](O)[C@H](n5cnc6c(N)ncnc65)O[C@@H]4COP(=O)(S)O[C@H]3[C@H]2O)c(=O)[nH]1 (stereo partly drawn) and give its measured IC50. 9.55

Consider the compound `O=c1[nH]cnc2c1ncn2[C@@H]1O[C@@H]2COP(=O)(O)O[C@H]3[C@@H](O)[C@H](n4cnc5c4ncn4ccnc54)O[C@@H]3COP(=O)(O)O[C@H]2[C@H]1O` and give its measured IC50. 25.3

Consider the compound Nc1ncnc2c1ncn2[C@@H]1O[C@@H]2COP(=O)(S)O[C@H]3[C@@H](O)[C@H](n4cnc5c4ncn4ncnc54)O[C@@H]3COP(=O)(O)O[C@H]2[C@H]1F (single isomer, unassigned) [Example 10-1] and give its measured IC50. 2.5
